Test system: CD2F1 mice, L1210 leukemia ip, survival T/C
Assay: NCI In Vivo Anticancer Drug Screen. Data for tumor model L1210 Leukemia (intraperitoneal) in CD2F1 (CDF1) mice
Conditions: endpoint: median survival time; dose: 12.5 mg/kg/injection; schedule: Q01DX009 (ip); vehicle: saline with Tween-80; higher = longer survival
Method: The antitumor activity of compounds was measured in mice bearing transplantable tumors. Survival or tumor size were measured and the results are expressed as the measurement made in the treated group (T) divided by the measurement made in the vehicle treated control group (C). The tumor model used in this assay is L1210 Leukemia (intraperitoneal) in CD2F1 (CDF1) mice
Inconclusive results and toxic doses are left out.
endpointName: T/C

Prompt line: Would you kindly share the measured T/C for Cn1nnc2c(C(N)=O)ncn2c1=O ?
Response line: 122 % of control

Prompt line: Would you kindly share the measured T/C for Nc1ccc2c(c1)CN1C(=O)c3ccccc3C1=N2 ?
Response line: 111 % of control

Prompt line: Would you kindly share the measured T/C for O=c1cc(-c2ccccc2)[nH]c2c1CCCC2 ?
Response line: 102 % of control

Prompt line: Would you kindly share the measured T/C for O=C(CN1CCOCC1)Nc1nc(-c2ccc(Cl)cc2)cs1 ?
Response line: 102 % of control

Prompt line: Would you kindly share the measured T/C for N=C(N)c1ccc(N=NNc2ccc(C(=N)N)cc2)cc1 ?
Response line: 117 % of control
